- Test Parameters: buffer; pH 7.4; 200.0 µM
The following molecules are listed with their measured solubility kinetic values.

Molecule | solubility kinetic
O=C(Nc1ccc(Cl)cc1)c1cncs1 | > 35.8 µg/mL
COc1ccc(NC(=O)C2C3CC/C=C\CCC32)cc1 (stereo not drawn) | < 0.6 µg/mL
COc1ccccc1CN1C(=O)CNC1=S | > 35.4 µg/mL
Cc1onc(-c2ccccc2Cl)c1C(=O)NCc1ccccc1F | > 51.7 µg/mL
O=C(Nc1cccnc1)c1ccc(Cl)cc1[N+](=O)[O-] | > 41.7 µg/mL
O=C(CSc1ncccn1)Nc1ccc2[nH]c(=O)[nH]c2c1 | > 45.2 µg/mL
CC(=O)NCCc1c[nH]c2ccc(O)cc12 | > 32.7 µg/mL
Cc1ccc(OCC(=O)NCCNC(=O)c2ccco2)cc1C | > 47.5 µg/mL
CN1CCN(C(=O)c2cccn(Cc3cccc(Cl)c3)c2=O)CC1 | > 51.9 µg/mL
Cc1[nH]c2ccc(C(=O)N3CCCCC3)cc2c1C | > 38.5 µg/mL
Cc1[nH]c(C(=O)O)c(C#N)c1C(=O)c1ccccc1 | > 38.1 µg/mL
Cc1ccc(C(=O)N2CCCCC2C(=O)O)o1 (stereo not drawn) | > 35.6 µg/mL
COCC(=O)N1CCCC(CNS(=O)(=O)c2ccc(OC)cc2)C1 (stereo not drawn) | > 53.5 µg/mL

###

- Test Parameters: buffer; pH 7.4; 200.0 µM

Compound | solubility kinetic
COCCN(C(=O)c1cc(-c2ccco2)nc2ccccc12)c1c(N)n(Cc2ccccc2)c(=O)[nH]c1=O | > 76.7 µg/mL
Cc1cc(C)c(C)c(S(=O)(=O)N2CCC(C(=O)OCC(=O)NC3CCS(=O)(=O)C3)CC2)c1C (stereo unspecified) | > 75.1 µg/mL
CS(=O)(=O)N(CC(=O)NCc1cccnc1)C1CCCCC1 | > 48.8 µg/mL
CCN(CC)C(=O)CN1C(=O)c2cccc3cccc1c23 | > 42.4 µg/mL
CC(=O)c1cccc(NC(=O)C(C)OC(=O)CCc2nc3ccccc3c(=O)[nH]2)c1 (stereo unspecified) | > 61.1 µg/mL
O=C(Cc1ccccc1)Oc1ccc([N+](=O)[O-])cc1 | > 38.6 µg/mL

###

- Test Parameters: buffer; pH 7.4; 200.0 µM
The following compounds are listed with their measured solubility kinetic values.
Property Label: solubility kinetic

Compound | Property Label | Assay Value
CSc1ncccc1C(=O)OCCCC(=O)c1ccc(F)cc1 | solubility kinetic | 3.8 µg/mL
CC(=O)c1c(C)oc2ccc(NS(=O)(=O)c3ccc(C)cc3)cc12 | solubility kinetic | < 0.7 µg/mL
Cc1cccc(NC(=O)c2ccc3nccnc3c2)n1 | solubility kinetic | > 39.6 µg/mL
O=C(C1CCN(S(=O)(=O)c2c(Cl)cccc2Cl)CC1)N1CCCC1 | solubility kinetic | > 58.7 µg/mL
Cc1nc(-c2ccc(C(=O)Nc3cccc(F)c3)cc2)cs1 | solubility kinetic | < 0.3 µg/mL
O=C1NC(=S)NC(=O)C1=Cc1ccc(Br)s1 | solubility kinetic | 44.3 µg/mL
CC(=O)N1CCOCCOCCOCC1 | solubility kinetic | > 32.6 µg/mL
Cc1nc([N+](=O)[O-])cn1CC(O)c1ccccc1 (stereo not drawn) | solubility kinetic | > 37.1 µg/mL
Cc1cc(C)c2sc(N(CCN(C)C)C(=O)c3ccc4ccccc4c3)nc2c1.Cl | solubility kinetic | 6.7 µg/mL
CC(=O)c1cccc(NC(=O)COC(=O)c2ccccn2)c1 | solubility kinetic | 35 µg/mL
CN(C)C(=O)C(NC(=O)c1ccccc1)=C(Cl)Cl | solubility kinetic | 42 µg/mL
O=C(COc1ccccc1)NC1CCCCCCC1 | solubility kinetic | 36.2 µg/mL
COc1ccc(OC)c(NC(=O)c2cccc(NC(=O)c3ccccc3)c2)c1 | solubility kinetic | 9.8 µg/mL
COc1ccc(C(CNc2ncnc3sccc23)N(C)C)cc1OC (stereo not drawn) | solubility kinetic | 35.5 µg/mL
CCN(C(=S)NCc1ccccc1)c1cccc2ccccc12 | solubility kinetic | 2.7 µg/mL
Cc1ccccc1C(=O)N1CCN(C(c2ccccc2)c2ccccc2)CC1.Cl | solubility kinetic | 7.8 µg/mL
COc1cccc(N2CN(C3CCCCC3)CNC2=S)c1 | solubility kinetic | > 45.8 µg/mL
Nc1cc(C(=O)OCC(=O)NCCCc2ccccc2)ccc1Cl | solubility kinetic | 10.5 µg/mL
